- System: TK-10 renal
- protocolSummary: NCI tumour cell line growth inhibition, 48 h
compounds and their reported TGI
measurementKind: TGI

CCOC(=O)Nc1nc2c(C)cccc2s1 = > 100 µM
O=C1c2ccccc2-c2nc(/C=C/c3ccccc3)cc3c2c1nc1ccccc13 = > 100 µM
CC(C)Nc1ncc2cc(Oc3ccc(F)cc3F)c(=O)n(C)c2n1 = > 25 µM
CCOc1ccc2nc(NC(NC(=O)c3cccnc3)(C(F)(F)F)C(F)(F)F)sc2c1 = > 100 µM
CC1(C)CCC(=O)NC1CC(=O)CC1NC(=O)CCC1(C)C (stereo unspecified) = > 100 µM
COc1ccc(/C=C/NC=O)cc1 = > 100 µM

---

compounds and their reported TGI
- Tested on: A498 renal
- protocolSummary: NCI tumour cell line growth inhibition, 48 h
measurementKind: TGI

COc1ccc(-c2cc(=O)c3c(OC)c(OC)c(OC)c(OC)c3o2)c(OC)c1 = 76.1 µM
CCSc1nnc(-c2ccc3ccccc3c2O)n1-c1ccc(Cl)cc1 = > 100 µM
COc1ccc2cc(C(=O)NCCCNC(=O)c3ccc4cc(OC)ccc4c3)ccc2c1 = > 100 µM
COc1cc(/C=C2\C(=O)Nc3cccc(Cl)c32)cc(OC)c1OC = > 100 µM
CCN(CC)CCCOc1cc2c(cc1OC)C(=O)N1CCC[C@H]1C=N2 = 92.4 µM
CC[C@@]12C=CC(=S)N(CCSc3ccccc3)[C@@H]1c1c(n(S(=O)(=O)c3ccc(OC)cc3)c3ccccc13)CC2 = > 100 µM
Nn1c(Cc2ccccc2)n[nH]c1=O = > 100 µM
N#Cc1ccc(Oc2nc3ccc(C(F)(F)F)cc3nc2-c2ccccc2)cc1 = 31.2 µM
c1ccc2c(c1)CC1COc3ccccc3C1O2 (stereo not given) = > 100 µM
O=C(O)C1CCCCC1c1c2ccc(=O)cc-2oc2cc(O)ccc12 (stereo not given) = > 100 µM
CN1CCN(c2ccc(C(=O)Nc3cc(-c4cccc(NS(=O)(=O)c5ccccc5)c4)[nH]n3)cc2)CC1 = 9.75 µM
Cc1ccc(S(=O)(=O)N2CCNCCN(S(=O)(=O)c3ccc(C)cc3)CCN(S(=O)(=O)c3ccc(C)cc3)CC2)cc1 = > 100 µM
COc1cc2c(c(OC)c1OC)-c1ccc(OC)c(=O)cc1[C@@H](N(C)C=O)CC2 = 0.665 µM
O=[N+]([O-])c1ccc2nc3ccccc3cc2c1 = 3.27 µM
O=C1c2ccccc2C(=O)c2c(O)ccc(O)c21 = > 100 µM
O=C1c2ccccc2-c2nc(/C=C/c3ccccc3)cc3c2c1nc1ccccc13 = > 100 µM
O=[N+]([O-])c1c2nc3n(c2cc2c1nc1n2CCC1)CCC3 = > 100 µM
COc1ccc(-c2csc(NC(=O)c3cc(O)c(O)c(O)c3)n2)cc1 = > 33.3 µM
O=C(c1ccc(Cl)cc1)c1ccc(OCCSCCCCCCCCCCSCCOc2ccc(C(=O)c3ccc(Cl)cc3)cc2)cc1 = > 100 µM
CCC(C(=O)c1ccccc1)C(CCCC(=O)Nc1c(C)cccc1C)N=O (stereo not given) = > 100 µM
NC(CC1=CCC=CC1)C(=O)O (stereo not given) = > 100 µM
CC(=O)/C=C/c1ccc(C)cc1 = > 100 µM
O=C(OCCC12CC3CC(CC(C3)C1)C2)c1ccc(NCc2cc(O)ccc2O)cc1 = 4.83 µM
S=C(Nc1ccccn1)Nc1ccccc1Cl = > 100 µM
CC(C)c1ccc(NC(=S)NC(=O)c2ccccc2)cc1 = 74.1 µM
O=C(OCc1ccccc1)N1CCN(C(=O)OCc2ccccc2)CCN(C(=O)OCc2ccccc2)CCN(C(=O)OCc2ccccc2)CCN(C(=O)OCc2ccccc2)CC1 = > 100 µM
NC(=O)c1ccc2nc3c(n2c1)C(=O)C(=O)c1ccccc1-3 = 3.14 µM
Nc1ncnc2c1cnn2Cc1ccc(Cl)cc1 = 68.6 µM
C=C(C(=O)OC)c1cc2ccccc2n1S(=O)(=O)c1ccccc1 = 5.69 µM
CC(C)CN(CC(C)C)C(=O)C1CCCC[C@@H]1C(=O)O (stereo not given in full) = > 100 µM
C=CCCCCCCCCCOC1C=CC(OC(C)=O)C(COC(C)=O)O1 (stereo not given) = > 100 µM
COc1ccc(-c2c(N)[n+]([O-])c3ccccc3[n+]2[O-])cc1OC = > 100 µM
Cc1cccc(C)c1NC(=O)CCc1n[nH]c(=S)o1 = > 100 µM
Cc1c2c(cc3c(=O)ccn(CCN(C)C)c13)c(=O)ccn2CCN(C)C = 38 µM
N#CC1CC2(C(=O)C1=O)c1ccccc1-c1ccccc12 (stereo not given) = > 100 µM

---

molecules and their reported TGI
- System: M19-MEL melanoma
- protocolSummary: NCI tumour cell line growth inhibition, 48 h
measurementKind: TGI

CC1(C)CC(Nc2ccc(Nc3ccccc3)cc2)CC(C)(C)N1 = > 94.2 µM
CCCCCCCCCCCCCCCCCCOCC(COP(=O)([O-])OCC[N+](C)(C)C)OC (centres undefined) = 16.8 µM
C=CCn1cc(C(=O)NC(=O)NCCCCCOC(=O)CCCCCCCCCCC(=O)OCCCCCNC(=O)NC(=O)c2cn(CC=C)c(=O)n(C)c2=O)c(=O)n(C)c1=O = > 100 µM
CCC(C(=O)c1ccccc1)C(CCCC(=O)Nc1c(C)cccc1C)N=O (centres undefined) = > 100 µM
COc1ccc(-c2c(N)[n+]([O-])c3ccccc3[n+]2[O-])cc1OC = > 100 µM
CC/C=C/c1cc2cc[nH]c2c2c1C(C)C[C@@H]2C (some centres undefined) = 77.3 µM
O=c1c2ccccc2[nH]c2cc(O)cc(O)c12 = > 100 µM
CC(=O)/C=C/c1ccc(C)cc1 = > 100 µM
COC(=O)C1C(OCc2ccccc2)C2CCC1(OC)C=C2C (centres undefined) = > 100 µM

---

- Tested on: UACC-62 melanoma
- protocolSummary: NCI tumour cell line growth inhibition, 48 h
measurementKind: TGI

CCOC(=O)Cn1c(=O)c2cc(-c3ccccc3)cc3c(Cl)nc4c(OC)c(OC)cc1c4c32 = 30.4 µM
COc1ccc(OC)c2c(=S)c3ccccc3[nH]c12 = > 100 µM
CC1(CC2=C(C(=O)NCCO[Si](C)(C)C(C)(C)C)C3(OCCO3)C2=O)OCCO1 = > 100 µM
CCOC(=O)CSc1[nH]c(NC(=S)Nc2ccccc2)c(C(N)=O)c1C(N)=O = > 10 µM
O=C1CCS/C(=N\S(=O)(=O)c2ccc(N3N=C4c5ccccc5CC4C3c3cccs3)cc2)N1C(=O)c1ccccc1 (configuration not stated) = 28 µM
O=C1CCCC2=C1CC1=C(CCCC1=O)N2c1ccccc1 = > 100 µM
COc1ccc2cc(C(=O)NCCCNC(=O)c3ccc4cc(OC)ccc4c3)ccc2c1 = > 100 µM

---

- System: NCI/ADR-RES ovarian
- protocolSummary: NCI tumour cell line growth inhibition, 48 h; in the data active = GI50 below about 0.43 µM; inactive = the rest
Outcome codes: active, inactive

Clc1ccc(Nc2ccnc(NCCCNc3ccnc4cc(Cl)ccc34)n2)cc1 = inactive
COc1cc(OC)c(C(=O)/C=C/c2cccc(OC(C)=O)c2)cc1CC=C(C)C = inactive
CCOC(=O)c1cc(C(=O)c2cc(OC)c(OC)c(OC)c2)n2ccccc12 = active
CCCN(CCSSCCNc1nc(N(C)O)nc(N(C)O)n1)c1nc(N(C)O)nc(N(C)O)n1 = inactive

---

compounds and their reported TGI
- System: DLD-1 colon
- protocolSummary: NCI tumour cell line growth inhibition, 48 h
measurementKind: TGI

COc1cc(Nc2nc3ccc(C(F)(F)F)cc3nc2-c2ccccc2)cc(OC)c1OC = > 100 µM
CC(C)C(=O)/C=C/c1ccc(Cl)c(Cl)c1 = 34.2 µM
COc1cc(/C=C(\OC(C)=O)c2ccc3c(c2)OCO3)cc(OC)c1OC = 60.6 µM
COc1cc(C2c3cc4c(cc3[C@@H](Nc3cccc([N+](=O)[O-])c3)C3COC(=O)[C@H]23)OCO4)cc(OC)c1O (some centres undefined) = 17.1 µM
O=c1c2cccnc2ncn1CCN1CCCC1 = > 100 µM
CCCCCCCCCCCCCCCCCCOCC(COP(=O)([O-])OCC[N+](C)(C)C)OC (centres undefined) = 17.7 µM
NC1(C(=O)O)CCCC1 = > 625 µM
C1COCCOCCOCCOCCO1.CC(=O)[CH-]C(C)=O.CC(=O)[CH-]C(C)=O.CC(=O)[CH-]C(C)=O.[V] = > 100 µM
N#CC1C2CCC3(CC2CCN1C(=O)c1ccccc1)OCCO3 (centres undefined) = > 100 µM

---

compounds and their reported TGI
- System: COLO 205 colon
- protocolSummary: NCI tumour cell line growth inhibition, 48 h
measurementKind: TGI

C=C(C)[C@@H]1CCC2=C[C@H](CC(C)=CC3=CC(C)=C(O3)[C@@H]1OC)OC2=O = > 100 µM
c1ccc(COC2(OCc3ccccc3)CC3OC2C2NN=NC32)cc1 (stereo not given) = > 100 µM
Oc1ccccc1-c1n[nH]c(=S)n1/N=C/c1ccc(-c2ccc(Br)cc2)o1 = > 100 µM
O=C(OCc1ccccc1)N1CCN(C(=O)OCc2ccccc2)CCN(C(=O)OCc2ccccc2)CCN(C(=O)OCc2ccccc2)CCN(C(=O)OCc2ccccc2)CC1 = > 100 µM
N#C/C(=C\c1ccc(C(O)P(=O)(O)O)cc1)C(N)=O (stereo not given) = > 100 µM
